# credit: patent US20240116985A1

assay: Solubility in PBS; assay type: physicochemical; settings: Solubility (uM)
The following compounds are listed with their measured Solubility values.
Quick note: give the figure in µM, leave out the unit.

Look over these answered cases.
CC(=O)N1CCC[C@]12CC=CCCCC1(CCCC=CCCCOC(=O)N3CC[C@@](C(=O)N[C@@H](Cc4ccccc4Cl)C(=O)N[C@@H](Cc4csc5ccccc45)C(=O)N[C@@H](C(N)=O)[C@H](C)O)(C3)NC(=O)[C@H](CO)NC(=O)[C@H](Cc3ccccc3)NC(=O)[C@H](C)NC(=O)[C@H](C)NC(=O)[C@H](CC(=O)O)NC(=O)[C@H](CC(=O)O)NC1=O)NC(=O)[C@H](Cc1ccccc1)NC(=O)[C@H](CC(=O)O)NC2=O (some centres unmarked)    46
CC(=O)N1CCC[C@]12CC=CCCCC1(CCCC=CCCCOC(=O)N3CC[C@@](C(=O)N[C@@H](Cc4ccccc4)C(=O)N[C@@H](Cc4csc5ccccc45)C(=O)N[C@@H](CO)C(N)=O)(C3)NC(=O)[C@H](CO)NC(=O)[C@H](CC3CCCCC3)NC(=O)[C@H](C)NC(=O)[C@H](C)NC(=O)[C@H](CC(=O)O)NC(=O)[C@H](CC(=O)O)NC1=O)NC(=O)[C@H](CC(C)(C)C)NC(=O)[C@H](CC(=O)O)NC2=O (some centres unmarked)    48

-- ask Recorded Solubility for CC(=O)N1CCC[C@]12CC=CCCCC1(CCCC=CCCCOC(=O)N3CC[C@@](C(=O)N[C@@H](Cc4ccccc4Cl)C(=O)N[C@@H](Cc4csc5ccccc45)C(=O)N[C@@H](CCC(N)=O)C(N)=O)(C3)NC(=O)[C@H](CCCCNC(C)C)NC(=O)[C@H](Cc3ccccc3)NC(=O)[C@H](C)NC(=O)[C@H](C)NC(=O)[C@H](CCC(=O)O)NC(=O)[C@H](CC(=O)O)NC1=O)NC(=O)[C@H](CC(C)(C)C)NC(=O)[C@H](CC(=O)O)NC2=O (some centres unmarked) , please?
-- reply 14

-- ask Recorded Solubility for CC(=O)N1CCC[C@]12CC=CCCCC1(CCCC=CCCCCCC[C@@](C)(C(=O)N[C@@H](Cc3ccccc3)C(=O)N[C@@H](Cc3csc4ccccc34)C(=O)N[C@@H](CCC(N)=O)C(N)=O)NC(=O)[C@H](CC(N)=O)NC(=O)[C@H](Cc3ccccc3)NC(=O)[C@H](C)NC(=O)[C@H](C)NC(=O)[C@H](CN(CC(=O)O)CC(F)(F)F)NC(=O)[C@H](CC(=O)O)NC1=O)NC(=O)[C@H](CC1CCCCC1)NC(=O)[C@H](CC(=O)O)NC2=O (some centres unmarked) , please?
-- reply 48

-- ask Recorded Solubility for COc1cccc(C[C@@H]2NC(=O)[C@H](C)NC(=O)[C@H](C)NC(=O)[C@H](CC(=O)O)NC(=O)[C@H](CC(=O)O)NC(=O)C3(CCCC=CCCCOC(=O)N4CC[C@@](C(=O)N[C@@H](Cc5ccccc5)C(=O)N[C@@H](Cc5csc6ccccc56)C(=O)N[C@@H](CCC(N)=O)C(N)=O)(C4)NC(=O)[C@H](CO)NC2=O)CCCC=CC[C@]2(CCCN2C(C)=O)C(=O)N[C@@H](CC(=O)O)C(=O)N[C@@H](CC2CCCCC2)C(=O)N3)c1 (some centres unmarked) , please?
-- reply 47
